- Target Entity: M. abscessus DHFR (recombinant) (Mycobacteroides abscessus, UniProt B1MD46)
- Construct: gene MAB_3090c; E. coli codon-optimised gene in pET28a (NcoI/XhoI), N-terminal His6-tag, expressed in E. coli BL21(DE3), Ni-NTA purified; tag removal not mentioned
- Sequence (B1MD46 1-163): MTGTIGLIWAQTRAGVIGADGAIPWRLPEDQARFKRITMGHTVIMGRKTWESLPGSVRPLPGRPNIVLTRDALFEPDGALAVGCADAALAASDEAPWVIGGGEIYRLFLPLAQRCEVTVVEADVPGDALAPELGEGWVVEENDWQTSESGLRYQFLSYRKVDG
- Test Protocol: NADPH absorbance decrease at […] nm (DHFR kit CS0340)
- Assay type: biochemical
- Condition Set: read-out: IC50 ^ b
Each item that follows carries a reported IC50.
Supply the numeric figure in nM, leaving out any unit text.

Here are 8 compounds together with their reported answers.
Entry Smiles: N#Cc1ccccc1Cn1ccc2c3c(N)nc(N)nc3ccc21
Target Entity: M. abscessus DHFR (recombinant) (Mycobacteroides abscessus, UniProt B1MD46)
U: nM
IC50: 16
--
Entry Smiles: Cc1ccccc1Cn1ccc2c3c(N)nc(N)nc3ccc21
Target Entity: M. abscessus DHFR (recombinant) (Mycobacteroides abscessus, UniProt B1MD46)
U: nM
IC50: 15
--
Entry Smiles: Nc1nc(N)c2c(ccc3c2ccn3Cc2cccc(Cl)c2)n1
Target Entity: M. abscessus DHFR (recombinant) (Mycobacteroides abscessus, UniProt B1MD46)
U: nM
IC50: 30
--
Entry Smiles: Nc1nc(N)c2c(ccc3c2ccn3Cc2ccc(F)cc2)n1
Target Entity: M. abscessus DHFR (recombinant) (Mycobacteroides abscessus, UniProt B1MD46)
U: nM
IC50: 20
--
Entry Smiles: Cc1cccc(Cn2ccc3c4c(N)nc(N)nc4ccc32)n1
Target Entity: M. abscessus DHFR (recombinant) (Mycobacteroides abscessus, UniProt B1MD46)
U: nM
IC50: 15
--
Entry Smiles: CC(C)Nc1nc(N)c2c(ccc3c2ccn3Cc2ccc(C(C)C)cc2)n1
Target Entity: M. abscessus DHFR (recombinant) (Mycobacteroides abscessus, UniProt B1MD46)
U: nM
IC50: 4100
--
Entry Smiles: COC(=O)c1ccc(Cn2ccc3c4c(N)nc(N)nc4ccc32)cc1
Target Entity: M. abscessus DHFR (recombinant) (Mycobacteroides abscessus, UniProt B1MD46)
U: nM
IC50: 15
--
Entry Smiles: Nc1nc(N)c2c(ccc3c2ccn3Cc2ccc3ccccc3c2)n1
Target Entity: M. abscessus DHFR (recombinant) (Mycobacteroides abscessus, UniProt B1MD46)
U: nM
IC50: 15

Let's switch to this compound now.
Tested on M. abscessus DHFR (recombinant) (Mycobacteroides abscessus, UniProt B1MD46), the item `N#Cc1cccc(Cn2ccc3c4c(N)nc(N)nc4ccc32)c1` showed IC50 equal to 3.4

* * *

- Target Entity: M. abscessus DHFR (recombinant) (Mycobacteroides abscessus, UniProt B1MD46)
- Construct: gene MAB_3090c; E. coli codon-optimised gene in pET28a (NcoI/XhoI), N-terminal His6-tag, expressed in E. coli BL21(DE3), Ni-NTA purified; tag removal not mentioned
- Test Protocol: NADPH absorbance decrease at […] nm (DHFR kit CS0340)
- Type: biochemical
- Condition Set: read-out: IC50 (μM) ^ b
Each item that follows carries a reported IC50.
Supply the numeric figure in µM, leaving out any unit text.

Kindly note the recorded IC50 for `CCc1nc(N)nc(N)c1-c1ccc(Cl)cc1` , which is 4.7

Kindly note the recorded IC50 for COc1cc(Cc2cnc(N)nc2N)c2c(c1OC)OC(C1CC1)C=C2 (centres unmarked) , which is 0.6

Kindly note the recorded IC50 for `N#Cc1ccc(Cn2ccc3c4c(N)nc(N)nc4ccc32)cc1` , which is 0.0025

Kindly note the recorded IC50 for C#CCC(Cc1cnc2nc(N)nc(N)c2n1)c1ccc(C(=O)N[C@@H](CCC(=O)O)C(=O)O)cc1 (some centres unmarked) [Pralatrexate] , which is 0.21

Kindly note the recorded IC50 for COc1cc(NCc2ccc3nc(N)nc(N)c3c2C)cc(OC)c1OC [Trimetrexate] , which is 0.005
